These data points were gathered from paper PMC6382696.

target: hTMEM16A (abc) (Homo sapiens, UniProt Q5XXA6, DEL476-501); experiment: medchem TMEM16A halide-sensitive YFP assay, 22-point dose-response; format: cell-based; parameters: expressed in transfected cells; conditions: TMEM16A eYFP Assay IC50, supplement; iodide as permeant anion, maximum concentration 55.6
Sequence (Q5XXA6 with tags, fused parts or gaps isoform Q5XXA6-5 DEL539-564): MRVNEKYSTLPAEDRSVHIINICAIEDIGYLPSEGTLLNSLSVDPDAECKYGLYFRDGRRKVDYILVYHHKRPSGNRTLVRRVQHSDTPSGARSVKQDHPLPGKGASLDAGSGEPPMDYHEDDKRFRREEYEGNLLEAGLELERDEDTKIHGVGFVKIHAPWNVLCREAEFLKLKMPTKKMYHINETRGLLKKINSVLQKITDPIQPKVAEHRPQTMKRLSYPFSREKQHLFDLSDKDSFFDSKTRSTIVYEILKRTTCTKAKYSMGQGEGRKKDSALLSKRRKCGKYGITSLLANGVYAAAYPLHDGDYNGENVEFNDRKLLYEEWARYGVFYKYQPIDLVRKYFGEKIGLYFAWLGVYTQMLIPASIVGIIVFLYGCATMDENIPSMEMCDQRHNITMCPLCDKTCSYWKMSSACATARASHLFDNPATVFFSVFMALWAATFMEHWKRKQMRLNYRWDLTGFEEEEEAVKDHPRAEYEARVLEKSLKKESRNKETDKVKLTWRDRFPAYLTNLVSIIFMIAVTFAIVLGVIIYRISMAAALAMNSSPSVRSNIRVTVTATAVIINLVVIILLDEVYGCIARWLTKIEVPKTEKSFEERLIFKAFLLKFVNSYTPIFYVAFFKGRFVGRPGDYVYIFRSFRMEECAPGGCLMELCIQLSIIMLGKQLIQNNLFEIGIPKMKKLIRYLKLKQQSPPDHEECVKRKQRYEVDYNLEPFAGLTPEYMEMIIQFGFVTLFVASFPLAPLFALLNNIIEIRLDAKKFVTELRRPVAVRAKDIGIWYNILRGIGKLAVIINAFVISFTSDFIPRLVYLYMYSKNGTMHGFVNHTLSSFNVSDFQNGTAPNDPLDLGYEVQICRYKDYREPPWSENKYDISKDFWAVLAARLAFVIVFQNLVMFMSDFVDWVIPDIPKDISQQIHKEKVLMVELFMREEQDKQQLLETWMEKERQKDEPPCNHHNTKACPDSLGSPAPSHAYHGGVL
Assign pIC50 to each entry below.
Numbers only, as −log10 of the molar value.

O=C(Nc1ccc(Cl)c(Cl)c1)c1cc(Cl)ccc1O :: 7.05

Next, consider the following compound.
hTMEM16A (abc) (Homo sapiens, UniProt Q5XXA6, DEL476-501) assay, compound CCc1oc2ccccc2c1C(=O)c1cc(Br)c(O)c(Br)c1 , recorded pIC50 = 5.82
